test system: GST tagged truncated human mutant G2019S LRRK2 (Homo sapiens (Human), UniProt Q5S007, G2019S)
Sequence (Q5S007 970-2527 G2019S): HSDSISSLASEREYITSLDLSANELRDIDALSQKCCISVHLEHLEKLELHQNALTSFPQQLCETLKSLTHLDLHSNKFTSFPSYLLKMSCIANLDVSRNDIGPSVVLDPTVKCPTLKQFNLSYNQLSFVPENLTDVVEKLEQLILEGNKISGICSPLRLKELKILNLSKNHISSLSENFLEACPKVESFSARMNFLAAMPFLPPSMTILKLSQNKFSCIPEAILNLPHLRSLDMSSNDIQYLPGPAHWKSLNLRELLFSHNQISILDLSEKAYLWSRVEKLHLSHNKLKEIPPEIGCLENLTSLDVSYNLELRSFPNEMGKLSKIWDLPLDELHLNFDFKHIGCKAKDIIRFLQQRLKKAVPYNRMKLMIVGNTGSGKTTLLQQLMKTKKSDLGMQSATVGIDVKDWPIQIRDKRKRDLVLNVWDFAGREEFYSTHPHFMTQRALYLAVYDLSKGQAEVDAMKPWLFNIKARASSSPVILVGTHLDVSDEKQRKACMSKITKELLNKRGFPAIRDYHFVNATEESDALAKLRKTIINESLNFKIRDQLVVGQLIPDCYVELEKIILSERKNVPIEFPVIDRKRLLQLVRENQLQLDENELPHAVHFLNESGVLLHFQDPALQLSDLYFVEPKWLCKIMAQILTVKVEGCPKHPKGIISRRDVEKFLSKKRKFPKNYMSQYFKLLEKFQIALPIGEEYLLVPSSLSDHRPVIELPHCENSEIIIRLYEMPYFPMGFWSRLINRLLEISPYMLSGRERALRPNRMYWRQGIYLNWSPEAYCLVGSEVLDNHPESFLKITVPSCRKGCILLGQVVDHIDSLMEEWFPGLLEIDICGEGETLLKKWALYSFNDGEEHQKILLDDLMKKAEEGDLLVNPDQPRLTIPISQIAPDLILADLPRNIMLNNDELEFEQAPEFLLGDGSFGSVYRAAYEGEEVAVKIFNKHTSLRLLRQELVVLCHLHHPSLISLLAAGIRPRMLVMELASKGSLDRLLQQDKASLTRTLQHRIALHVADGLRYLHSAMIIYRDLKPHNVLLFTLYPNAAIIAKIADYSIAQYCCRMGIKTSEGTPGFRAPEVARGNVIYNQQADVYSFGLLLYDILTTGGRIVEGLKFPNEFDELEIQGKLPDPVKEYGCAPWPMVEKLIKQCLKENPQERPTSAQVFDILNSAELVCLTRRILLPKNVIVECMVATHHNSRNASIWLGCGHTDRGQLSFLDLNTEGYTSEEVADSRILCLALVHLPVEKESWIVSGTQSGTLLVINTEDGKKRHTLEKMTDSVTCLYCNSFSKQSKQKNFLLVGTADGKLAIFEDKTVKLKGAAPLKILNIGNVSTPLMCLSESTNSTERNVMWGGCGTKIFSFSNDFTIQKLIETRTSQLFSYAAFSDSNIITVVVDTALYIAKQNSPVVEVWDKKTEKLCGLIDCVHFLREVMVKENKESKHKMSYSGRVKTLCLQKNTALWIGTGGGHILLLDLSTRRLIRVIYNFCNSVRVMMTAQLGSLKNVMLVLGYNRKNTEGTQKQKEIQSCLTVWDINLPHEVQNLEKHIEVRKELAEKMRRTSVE
assay method text: LRRK2 Km ATP LanthaScreen Assay
Assay type: biochemical
details: 134 μM ATP (Km ATP), LRRKtide substrate, negative log of mean IC50 (molar)
Assign LRRK2 pIC50 to each entry below.
Give bare numbers.

O=C(Nc1cnn(CC2CCC2)c1)c1cccc(-c2cnsc2)n1 [Example 9-15] : 6.66

I have 4 compounds here; please give me LRRK2 pIC50 for each one.
1. CC(C)n1cc(NC(=O)c2csc(-c3cn[nH]c3)n2)cn1 [Example 1-20]
2. O=C(Nc1cnn(CC2CCC2)c1)c1cccc(-c2csc3ccccc23)n1 [Example 9-31]
3. Cn1cc(-c2nc(C(=O)Nc3cn(C4CCC4)nc3C3CC3)cs2)cn1 [Example 12-2]
4. O=C(Nc1cnn(C2CCC2)c1)c1csc(-c2ccccc2)n1 [Example 4-9]

Result:
1. 7.68
2. 5.18
3. 7.76
4. 6.70

====

test system: GST tagged truncated human mutant G2019S LRRK2 (Homo sapiens (Human), UniProt Q5S007, G2019S)
assay method text: LRRK2 Km ATP LanthaScreen Assay
Type: biochemical
details: 134 μM ATP (Km ATP), LRRKtide substrate, negative log of mean IC50 (molar)
measurement type: LRRK2 pIC50
Answers are plain numbers.

Consider the reported LRRK2 pIC50 for these molecules:
Cc1cc(-n2cc(NC(=O)c3csc(-c4cn[nH]c4)n3)cn2)cc(C)n1 : 7.82
COc1nn(Cc2nnc3n2CCCCC3)cc1NC(=O)c1csc(-c2cn[nH]c2)n1 : 6.95
CC1(C)CC(Cn2cc(NC(=O)c3csc(-c4cn[nH]c4)n3)cn2)C1 : 8.00

Measured LRRK2 pIC50 of Cn1cc(NC(=O)c2csc(-c3cn[nH]c3)n2)c(Oc2ccccc2)n1 : 7.78

====

Assign LRRK2 pIC50 to each entry below.
test system: GST tagged truncated human mutant G2019S LRRK2 (Homo sapiens (Human), UniProt Q5S007, G2019S)
assay method text: LRRK2 Km ATP LanthaScreen Assay
Type: biochemical
details: 134 μM ATP (Km ATP), LRRKtide substrate, negative log of mean IC50 (molar)

Consider the reported LRRK2 pIC50 for these compounds:
Cn1cc(-c2cccc(C(=O)Nc3cnn(C4CCC4)c3)n2)cn1 : 7.27
O=C(Nc1cnn(CC2CCC2)c1)c1cccc(-c2ccoc2)n1 : 5.79
N#Cc1cccc(-c2cccc(C(=O)Nc3cnn(CC4CCC4)c3)n2)c1 : 5.51
N#CCn1cc(NC(=O)c2csc(-c3cn[nH]c3)n2)c(C(F)F)n1 : 7.50

I have 8 compounds here; please give me LRRK2 pIC50 for each one.
1. O=C(Nc1cnn(Cc2ccncc2)c1)c1csc(-c2cn[nH]c2)n1
2. CC(C)n1cc(NC(=O)c2csc(-c3cn[nH]c3)n2)c(C(F)F)n1
3. Cc1nn(C(C)C2CC2)cc1NC(=O)c1csc(-c2cn[nH]c2)n1 (single isomer, unassigned) [Example 2-3]
4. O=C(Nc1cnn(CC2CCC2)c1)c1cccc(-c2ccnnc2)n1
5. COc1nn(C2CC2)cc1NC(=O)c1csc(-c2cn[nH]c2)n1
6. CN1CCN(CCCn2cc(NC(=O)c3csc(-c4cn[nH]c4)n3)cn2)CC1
7. Cc1cnccc1-n1cc(NC(=O)c2csc(-c3cn[nH]c3)n2)cn1
8. O=C(Nc1cnn(Cc2ccc(F)cc2)c1)c1coc(-c2cn[nH]c2)n1

Result:
[7.30, 7.72, 6.99, 5.22, 7.51, 5.95, 7.74, 6.77]

I have 3 compounds here; please give me LRRK2 pIC50 for each one.
1. O=C(Nc1cn(CC2CC2)nc1C(F)F)c1csc(-c2cn[nH]c2)n1
2. O=C(Nc1cnn(CC2(F)COC2)c1)c1csc(-c2cn[nH]c2)n1
3. COc1nn(C2CCC2)cc1NC(=O)c1csc(-c2cn[nH]c2)n1

Result:
1. 8.13
2. 7.50
3. 7.76

I have 3 compounds here; please give me LRRK2 pIC50 for each one.
1. Cc1nn(C(F)F)cc1NC(=O)c1csc(-c2cn[nH]c2)n1
2. O=C(Nc1cnn(CC2(F)CCC2)c1)c1csc(-c2cn[nH]c2)n1
3. O=C(Nc1cn(C2CC2)nc1C1CC1)c1csc(-c2cn[nH]c2)n1

Result:
7.08
7.64
7.84

====

test system: GST tagged truncated human mutant G2019S LRRK2 (Homo sapiens (Human), UniProt Q5S007, G2019S)
assay method text: LRRK2 Km ATP LanthaScreen Assay
Assay type: biochemical
details: 134 μM ATP (Km ATP), LRRKtide substrate, negative log of mean IC50 (molar)
measurement type: LRRK2 pIC50

Consider the reported LRRK2 pIC50 for these compounds:
Cn1cc(NC(=O)c2csc(-c3cn[nH]c3)n2)cn1 [Example 4-15] : 7.28
O=C(Nc1cn(CC2CCOCC2)nc1C(F)F)c1csc(-c2cn[nH]c2)n1 [Example 7-7] : 7.72
O=C(Nc1cnn(C2CCC2)c1)c1coc(-c2ccccc2)n1 [Example 4-4] : 5.68
O=C(Nc1cnn(CC2CCC2)c1)c1cccc(-c2cccnc2)n1 [Example 9-34] : 6.90

Now look at this entry.
Measured LRRK2 pIC50 of O=C(Nc1cnn(CC2CCC2)c1)c1cccc(-c2ccc(F)cc2F)n1 [Example 9-11] : 5.63

====

test system: GST tagged truncated human mutant G2019S LRRK2 (Homo sapiens (Human), UniProt Q5S007, G2019S)
assay method text: LRRK2 Km ATP LanthaScreen Assay
Type: biochemical
details: 134 μM ATP (Km ATP), LRRKtide substrate, negative log of mean IC50 (molar)
measurement type: LRRK2 pIC50
Answers are plain numbers.

COc1ccncc1-c1cccc(C(=O)Nc2cnn(CC3CCC3)c2)n1 [Example 9-30] : 6.76

I have 4 compounds here; please give me LRRK2 pIC50 for each one.
1. O=C(Nc1cnn(C2CCC2)c1)c1csc(-n2ccnc2)n1 [Example 11-2]
2. O=C(Nc1cnn(C2CCC2)c1)c1cccc(N2CCCCC2)n1 [Example 4-18]
3. CC(C)n1cc(NC(=O)c2csc(-c3cn[nH]c3)n2)c(OCC(F)F)n1 [Example 1-46]
4. O=C(Nc1cnn(-c2ccncc2)c1)c1coc(-c2cn[nH]c2)n1 [Example 1-21]

Result:
6.61
5.81
7.57
7.18

====

test system: GST tagged truncated human mutant G2019S LRRK2 (Homo sapiens (Human), UniProt Q5S007, G2019S)
assay method text: LRRK2 Km ATP LanthaScreen Assay
Type: biochemical
details: 134 μM ATP (Km ATP), LRRKtide substrate, negative log of mean IC50 (molar)
Use Yes when the recorded LRRK2 pIC50 is no lower than 6; use No when it is lower.

Please review the entries below; each comes with its answer.
O=C(Nc1cn(CC2CCC2)nc1C(F)F)c1csc(-c2cn[nH]c2)n1 : Yes
CC(C)Cn1cc(NC(=O)c2csc(-c3cn[nH]c3)n2)cn1 : Yes
O=C(Nc1cn(CC2CCCCO2)nc1C(F)F)c1csc(-c2cn[nH]c2)n1 (stereo not drawn) : Yes

Let us examine a further case.
Query: Can O=C(Nc1cnn(CC2CCC2)c1)c1cccc(-c2cnn(CCN3CCOCC3)c2)n1 be said to have LRRK2 pIC50 at or above 6?
Result: No

====

Assign LRRK2 pIC50 to each entry below.
test system: GST tagged truncated human mutant G2019S LRRK2 (Homo sapiens (Human), UniProt Q5S007, G2019S)
assay method text: LRRK2 Km ATP LanthaScreen Assay
Type: biochemical
details: 134 μM ATP (Km ATP), LRRKtide substrate, negative log of mean IC50 (molar)

CC(C)n1cc(NC(=O)c2csc(-c3cn[nH]c3)n2)c(OCC(F)(F)F)n1 : 7.17

I have 2 molecules here; please give me LRRK2 pIC50 for each one.
1. O=C(Nc1cnn(CC2CCC2)c1)c1cccc(-c2cnn(C(F)F)c2)n1
2. CN(C)C(=O)c1nn(C)cc1NC(=O)c1csc(-c2cn[nH]c2)n1

Result:
[6.75, 7.25]

I have 2 molecules here; please give me LRRK2 pIC50 for each one.
1. O=C(Nc1cnn(CC2CCCO2)c1)c1csc(-c2cn[nH]c2)n1 (centres unmarked)
2. O=C(Nc1cnn(C2CCC2)c1)c1ccn(-c2ccccc2)n1

Result:
1. 6.84
2. 5.56

====

test system: GST tagged truncated human mutant G2019S LRRK2 (Homo sapiens (Human), UniProt Q5S007, G2019S)
assay method text: LRRK2 Km ATP LanthaScreen Assay
Format: biochemical
details: 134 μM ATP (Km ATP), LRRKtide substrate, negative log of mean IC50 (molar)
Simple rule here: LRRK2 pIC50 less than 7 is Yes, otherwise No.

Please review the entries below; each comes with its answer.
CC1(Cn2cc(NC(=O)c3csc(-c4cn[nH]c4)n3)c(C(F)F)n2)COC1 : Yes
O=C(Nc1cnn(CC2CCC2)c1)c1cccc(-c2cnn(Cc3ccccn3)c2)n1 : Yes
Cc1nn(C)cc1NC(=O)c1csc(-c2cn[nH]c2)n1 : No
CC(C)(C)n1cc(NC(=O)c2csc(-c3cn[nH]c3)n2)cn1 : No
Cn1cc(NC(=O)c2csc(-c3cn[nH]c3)n2)c(OCC(F)F)n1 : No

Query: Please let me know if Cn1cc(NC(=O)c2csc(-c3cn[nH]c3)n2)c(C(F)F)n1 shows LRRK2 pIC50 below 7.
Result: No
